assay: Biodistribution of technetium-labelled peptides; format: in vivo, CD1 mice; settings: mouse, stomach, 10 ug, total radioactivity; CD1 mice, iv; 1 hour; 10 μg; read-out: injected activity in Stomach
Residues, ends and D or L forms follow the SMILES beside them. *: point of attachment. X1 = Cc1nn(CCN(CCN)CCCC(=O)*)c(C)c1CC(=O)O
measurement.kind: tissue uptake at 1 h

* CC[C@H](C)[C@H](NC(=O)CNC(=O)[C@H](C)NC(=O)CCCN(CCN)CCn1nc(C)c(CC(=O)O)c1C)C(=O)N[C@@H](CC(C)C)C(=O)N[C@@H](CCCCN)C(=O)N[C@@H](CCCNC(=N)N)C(=O)N[C@@H](Cc1c[nH]c2ccccc12)C(=O)O [^99mTc(CO)3-Pz^1-pepH3, metal not drawn] (X1-AGILKRW-OH; C-terminus assumed) | 0.4 %ID/g
* Cc1nn(CCN(CCN)CCCC(=O)N[C@H](C(=O)N[C@@H](CCC(N)=O)C(=O)N[C@@H](CCC(N)=O)C(=O)N[C@@H](CC(C)C)C(=O)N[C@H](C(=O)N[C@@H](CCCCN)C(=O)N[C@@H](CCCNC(=N)N)C(=O)N[C@@H](Cc2ccccc2)C(=O)N[C@@H](CO)C(=O)N[C@@H](CC(C)C)C(=O)O)[C@@H](C)O)C(C)C)c(C)c1CC(=O)O [^99mTc(CO)3-Pz^1-pepH1, metal not drawn] (X1-VQQLTKRFSL-OH; C-terminus assumed) | 0.31 %ID/g

###

assay: Biodistribution of technetium-labelled peptides; type: in vivo, CD1 mice; conditions: mouse, pancreas, 10 ug, total radioactivity; CD1 mice, iv; 1 hour; 10 μg; read-out: injected activity in Pancreas
Residues, ends and D or L forms follow the SMILES beside them. *: point of attachment. X1 = Cc1nn(CCN(CCN)CCCC(=O)*)c(C)c1CC(=O)O
Catalogue of tissue uptake at 1 h readings, one per entry.
measurement.kind: tissue uptake at 1 h (%ID/g)

- CC[C@H](C)[C@H](NC(=O)CNC(=O)[C@H](C)NC(=O)CCCN(CCN)CCn1nc(C)c(CC(=O)O)c1C)C(=O)N[C@@H](CC(C)C)C(=O)N[C@@H](CCCCN)C(=O)N[C@@H](CCCNC(=N)N)C(=O)N[C@@H](Cc1c[nH]c2ccccc12)C(=O)O [^99mTc(CO)3-Pz^1-pepH3, metal not drawn] (X1-AGILKRW-OH; C-terminus assumed): 0.5
- Cc1nn(CCN(CCN)CCCC(=O)N[C@H](C(=O)N[C@@H](CCC(N)=O)C(=O)N[C@@H](CCC(N)=O)C(=O)N[C@@H](CC(C)C)C(=O)N[C@H](C(=O)N[C@@H](CCCCN)C(=O)N[C@@H](CCCNC(=N)N)C(=O)N[C@@H](Cc2ccccc2)C(=O)N[C@@H](CO)C(=O)N[C@@H](CC(C)C)C(=O)O)[C@@H](C)O)C(C)C)c(C)c1CC(=O)O [^99mTc(CO)3-Pz^1-pepH1, metal not drawn] (X1-VQQLTKRFSL-OH; C-terminus assumed): 0.41

###

Assay: Biodistribution of technetium-labelled peptides
Type: in vivo, CD1 mice
Conditions: CD1, blood, iv, 140 ug/mouse, total radioactivity; 140 μg/mouse; 2 min; read-out: injected activity in Blood
Description: To evaluate the capacity to cross the BBB in vivo, the selected peptides, pepH1 and pepH3, were analyzed for biodistribution in CD1 mice. The peptides were labelled with technetium at a final concentration of 8.5×10^−5 M and diluted in PBS. CD1 mice were injected (iv injection, tail vein). […] The tissues of interest were dissected and washed to remove excess blood, weighed, and measured for radioactivity. Technetium radioactivity of the different peptides was measured for different organs. […]
Residues, ends and D or L forms follow the SMILES beside them. *: point of attachment. X1 = Cc1nn(CCN(CCN)CCCC(=O)*)c(C)c1CC(=O)O
measurement.kind: tissue uptake at 2 min (%ID/g)

* CC[C@H](C)[C@H](NC(=O)CNC(=O)[C@H](C)NC(=O)CCCN(CCN)CCn1nc(C)c(CC(=O)O)c1C)C(=O)N[C@@H](CC(C)C)C(=O)N[C@@H](CCCCN)C(=O)N[C@@H](CCCNC(=N)N)C(=O)N[C@@H](Cc1c[nH]c2ccccc12)C(=O)O [^99mTc(CO)3-Pz^1-pepH3, metal not drawn] (X1-AGILKRW-OH; C-terminus assumed) | 8.6
* Cc1nn(CCN(CCN)CCCC(=O)N[C@H](C(=O)N[C@@H](CCC(N)=O)C(=O)N[C@@H](CCC(N)=O)C(=O)N[C@@H](CC(C)C)C(=O)N[C@H](C(=O)N[C@@H](CCCCN)C(=O)N[C@@H](CCCNC(=N)N)C(=O)N[C@@H](Cc2ccccc2)C(=O)N[C@@H](CO)C(=O)N[C@@H](CC(C)C)C(=O)O)[C@@H](C)O)C(C)C)c(C)c1CC(=O)O [^99mTc(CO)3-Pz^1-pepH1, metal not drawn] (X1-VQQLTKRFSL-OH; C-terminus assumed) | 3.1

###

Catalogue of tissue uptake at 1 h readings, one per entry.
test: Biodistribution of technetium-labelled peptides; assay type: in vivo, CD1 mice; settings: mouse, spleen, 10 ug, total radioactivity; CD1 mice, iv; 1 hour; 10 μg; read-out: injected activity in Spleen
Residues, ends and D or L forms follow the SMILES beside them. *: point of attachment. X1 = Cc1nn(CCN(CCN)CCCC(=O)*)c(C)c1CC(=O)O
measurement.kind: tissue uptake at 1 h (%ID/g)

- Cc1nn(CCN(CCN)CCCC(=O)N[C@H](C(=O)N[C@@H](CCC(N)=O)C(=O)N[C@@H](CCC(N)=O)C(=O)N[C@@H](CC(C)C)C(=O)N[C@H](C(=O)N[C@@H](CCCCN)C(=O)N[C@@H](CCCNC(=N)N)C(=O)N[C@@H](Cc2ccccc2)C(=O)N[C@@H](CO)C(=O)N[C@@H](CC(C)C)C(=O)O)[C@@H](C)O)C(C)C)c(C)c1CC(=O)O [^99mTc(CO)3-Pz^1-pepH1, metal not drawn] (X1-VQQLTKRFSL-OH; C-terminus assumed): 0.22
- CC[C@H](C)[C@H](NC(=O)CNC(=O)[C@H](C)NC(=O)CCCN(CCN)CCn1nc(C)c(CC(=O)O)c1C)C(=O)N[C@@H](CC(C)C)C(=O)N[C@@H](CCCCN)C(=O)N[C@@H](CCCNC(=N)N)C(=O)N[C@@H](Cc1c[nH]c2ccccc12)C(=O)O [^99mTc(CO)3-Pz^1-pepH3, metal not drawn] (X1-AGILKRW-OH; C-terminus assumed): 0.81

###

test: Biodistribution of technetium-labelled peptides; format: in vivo, CD1 mice; details: CD1, liver, iv, 140 ug/mouse, total radioactivity; 140 μg/mouse; 1 hour; read-out: injected activity in Liver
Residues, ends and D or L forms follow the SMILES beside them. *: point of attachment. X1 = Cc1nn(CCN(CCN)CCCC(=O)*)c(C)c1CC(=O)O
measurement.kind: tissue uptake at 1 h (%ID/g)

* CC[C@H](C)[C@H](NC(=O)CNC(=O)[C@H](C)NC(=O)CCCN(CCN)CCn1nc(C)c(CC(=O)O)c1C)C(=O)N[C@@H](CC(C)C)C(=O)N[C@@H](CCCCN)C(=O)N[C@@H](CCCNC(=N)N)C(=O)N[C@@H](Cc1c[nH]c2ccccc12)C(=O)O [^99mTc(CO)3-Pz^1-pepH3, metal not drawn] (X1-AGILKRW-OH; C-terminus assumed) | 2.3

###

tested on: bEnd3 cells; test: Uptake test: cellular interaction (acid wash) and internalization (lysate); type: cell-based; conditions: 99mTc; 5 hours
Catalogue of Cellular interaction readings, one per entry.
measurement.kind: Cellular interaction (%)

• AGILKRW (Dengue virus 2; /note=“#PepH3 (PEP+)”) = 1.15
• KSKAINVLRGFRKEIGRMLNILN [PepH4] = 10.10
• KLFMALVAFLRFLT [PepH2] = 5.95
• VQQLTKRFSL (Dengue virus 2; /note=“#PepH1”) = 0.30

###

assay: Biodistribution of technetium-labelled peptides; format: in vivo, CD1 mice; conditions: CD1, intestine, iv, 80 ug/mouse, total radioactivity; 80 μg/mouse; 1 hour; read-out: injected activity in Intestine
measurement.kind: tissue uptake at 1 h (%ID/g)

- CSCC[C@H](NC(=O)[C@H](Cc1ccccc1)NC(=O)[C@H](CC(C)C)NC(=O)[C@H](CCCCN)NC(=O)CCCN(CCN)CCn1nc(C)c(CC(=O)O)c1C)C(=O)N[C@@H](C)C(=O)N[C@@H](CC(C)C)C(=O)N[C@H](C(=O)N[C@@H](C)C(=O)N[C@@H](Cc1ccccc1)C(=O)N[C@@H](CC(C)C)C(=O)N[C@@H](CCCNC(=N)N)C(=O)N[C@@H](Cc1ccccc1)C(=O)N[C@@H](CC(C)C)C(=O)N[C@H](C(=O)O)[C@@H](C)O)C(C)C [^99mTc(CO)3-Pz^1-pepH2, metal not drawn]: 1.64
